These measurements were taken from PubChem BioAssay AID1159580.

EXPERIMENT_DESCRIPTION: chemical genetic growth profiling, strain panel (AID 1159580);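 further: tested at 20 µM; growth read once vehicle control cultures reached saturation at 30 °C; 1 = growth at the plate median or of vehicle wells; lower values mean less growth of the strain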
TEST_CONTEXT: S. cerevisiae deletion strains, growth OD, locus YDR069C, strain doa4, active compounds read low
About 2,000 (36%) of roughly 5,500 compounds were called active. Another 18% or so got no clear call; they are omitted. The list shows a part of the results.
normalized growth by entry:

| COMPOUND | normalized growth |
| --- | --- |
| O=P1(N(CCCl)CCCl)NCCCO1 (stereo unspecified) | 1 |
| CN[C@@H]1[C@H](O)[C@H](NC)[C@H]2O[C@@]3(O)C(=O)C[C@@H](C)O[C@H]3O[C@@H]2[C@H]1O | 1.02 |
| NC(=O)c1cccnc1 | 0.972 |
| Cc1cc(=O)oc2cc(O)cc(O)c12 | 0.941 |
| O=C(O)c1ccccc1 | 0.958 |
| Nc1ccc(S(=O)(=O)NC(=O)c2ccccc2)cc1 | 0.973 |
